These data points were gathered from patent US9534008B2.

- Tested on: C. elegans
- method-notes: Ascaroside function (Table 12), C. elegans
- Type: in vivo, Caenorhabditis elegans
- Parameters: key: A very strong result of affecting nematode behavior is designated in the table as “strong.”
observation-type: Attract Females/Herm.

[[record]]
molecule = "C[C@H](CCC(=O)O)O[C@@H]1O[C@@H](C)[C@H](OC(=O)c2c[nH]c3ccccc23)C[C@H]1O [icas#9]"
val = "([strong])"

[[record]]
molecule = "C[C@H](CCCCC(=O)O)O[C@@H]1O[C@@H](C)[C@H](OC(=O)c2c[nH]c3ccccc23)C[C@H]1O [icas#1]"
val = "([strong])"

[[record]]
molecule = "C[C@H](CCCC/C=C/C(=O)O)O[C@@H]1O[C@@H](C)[C@H](OC(=O)c2c[nH]c3ccccc23)C[C@H]1O [icas#3]"
val = "([strong])"


* * *

- System: C. elegans
- method-notes: Ascaroside function (Table 12), C. elegans
- Assay type: in vivo, Caenorhabditis elegans
- Design: key: A very strong result of affecting nematode behavior is designated in the table as “strong.”
observation-type: Attract Males

[[record]]
compound = "C[C@H](CCCC/C=C/C(=O)O)O[C@@H]1O[C@@H](C)[C@H](OC(=O)c2ccc(O)cc2)C[C@H]1O [hbas#3]"
observation_type = "Attract Males"
val = "([strong])"

[[record]]
compound = "C[C@H](CCCCC(=O)O)O[C@@H]1O[C@@H](C)[C@H](OC(=O)c2c[nH]c3ccccc23)C[C@H]1O [icas#1]"
observation_type = "Attract Males"
val = "([strong])"

[[record]]
compound = "C[C@H](CCCC/C=C/C(=O)O)O[C@@H]1O[C@@H](C)[C@H](OC(=O)c2c[nH]c3ccccc23)C[C@H]1O [icas#3]"
observation_type = "Attract Males"
val = "([strong])"

